experimentSummary: Nrf2 qHTS screen for inhibitors: Validation (AID 493153);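 note: A549 cells with ARE-driven firefly luciferase reporter reporting Nrf2 activity; series mostly up to about 46 µM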
testConditions: A549 ARE-Fluc reporter, 18-24 h
Records with an inconclusive call do not appear. Activity calls are given as the source filed them. Calls come from the whole dose curve; as a rule, active = well fitted inhibition curve with a large enough effect in the main read-out, with a control signal flat (not every such curve was filed as active); inconclusive = small, poorly fitted or top-dose-only effect, or effect the other way, or a change in a side signal; inactive = no such curve, though single readings can be large or run the other way.
propertyLabel: outcome

Here's what some known entries look like.
{"compound": "NC1CCc2cc(O)c(O)cc2C1 (stereo not drawn)", "dataValue": "inactive"}
{"compound": "Clc1cnc(Oc2ccc(Oc3ncc(Cl)cc3Cl)cc2)c(Cl)c1", "dataValue": "inactive"}
{"compound": "COC(=O)[C@@H](N)CCCN=C(N)N[N+](=O)[O-]", "dataValue": "inactive"}
{"compound": "CNCCc1c[nH]c2ccc(O)cc12", "dataValue": "inactive"}
{"compound": "C=CCN1CC[C@]23CCCCC2[C@H]1Cc1ccc(O)cc13 (stereo partly drawn)", "dataValue": "inactive"}
{"compound": "COc1cc(C(O)CN)ccc1O (stereo not drawn)", "dataValue": "inactive"}
{"compound": "c1ccc(CCCN2CCN(CCOC(c3ccccc3)c3ccccc3)CC2)cc1", "dataValue": "inactive"}
{"compound": "NCCc1c[nH]c2ccccc12", "dataValue": "inactive"}
{"compound": "O=C1CCCN1CC#CCN1CCCC1", "dataValue": "inactive"}
{"compound": "CCCN(CCC)C1CCc2ccc(O)cc2C1 (stereo not drawn)", "dataValue": "inactive"}

IN: Query outcome for `O=C(N[C@H]1CN2CCC1CC2)c1ccc(Cl)cc1`
OUT: inactive

IN: Determine its reported outcome: `CCCN1CCO[C@@H]2c3cc(O)ccc3OC[C@H]21`
OUT: inactive

IN: Return outcome for the following compound: `CC(=O)NCCc1c[nH]c2ccccc12`
OUT: inactive

// data source = PubChem BioAssay (NCATS)
